molecular target: ERK2[2-360(p-T185/p-Y187)]-Avi (Homo sapiens, UniProt P28482); construct: 400 pM ERK2[2-360(p-T185/p-Y187)]-Avi was added to the plate; assay: Biochemical assay (HTRF competition assay); format: binding; conditions: HTRF competition with Example 15 probe, overnight at RT; read-out: Biochemical qualified AC50
Sequence (P28482 2-360 limits assumed): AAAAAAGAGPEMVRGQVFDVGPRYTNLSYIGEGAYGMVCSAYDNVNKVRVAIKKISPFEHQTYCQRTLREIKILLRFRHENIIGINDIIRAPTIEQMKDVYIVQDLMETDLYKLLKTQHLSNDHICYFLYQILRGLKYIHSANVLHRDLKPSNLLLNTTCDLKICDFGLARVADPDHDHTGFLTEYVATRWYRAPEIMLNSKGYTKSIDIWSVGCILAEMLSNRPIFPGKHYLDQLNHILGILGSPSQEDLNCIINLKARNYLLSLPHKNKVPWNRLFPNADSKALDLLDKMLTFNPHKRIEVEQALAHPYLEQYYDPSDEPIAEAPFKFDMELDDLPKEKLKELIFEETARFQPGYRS
Reported AC50 values are given for each entry in this list.
# output: bare number, implied unit nM

CN1C[C@@H](F)[C@@H](NC(=O)C2(c3ccc(F)cc3)CCN(C(=O)c3c(C=O)n(CC4CCOCC4)c4ccc(Cl)cc34)CC2)C1: 0.48

Given `COCCc1c(C[C@H]2CC[C@H](OC(C)C)CC2)c2ccc(F)cc2n1C(=O)N1CCC(C(=O)N[C@H]2CC[C@H](C(=O)O)C[C@@H]2C)(c2ccc(F)cc2)CC1` , respond with its AC50. 0.5

---

biological target: nanobit-large-bit-ERK2 and nanobit-small-bit-PEA15 in WM793 cells (Homo sapiens, UniProt P28482); construct: expressed in transfected cells; test: NanoBiT assay; assay type: cell-based; conditions: WM793 nanobit stable cell line, overnight incubation; read-out: NanoBiT qualified absolute AC50
Sequence (P28482 whole entry): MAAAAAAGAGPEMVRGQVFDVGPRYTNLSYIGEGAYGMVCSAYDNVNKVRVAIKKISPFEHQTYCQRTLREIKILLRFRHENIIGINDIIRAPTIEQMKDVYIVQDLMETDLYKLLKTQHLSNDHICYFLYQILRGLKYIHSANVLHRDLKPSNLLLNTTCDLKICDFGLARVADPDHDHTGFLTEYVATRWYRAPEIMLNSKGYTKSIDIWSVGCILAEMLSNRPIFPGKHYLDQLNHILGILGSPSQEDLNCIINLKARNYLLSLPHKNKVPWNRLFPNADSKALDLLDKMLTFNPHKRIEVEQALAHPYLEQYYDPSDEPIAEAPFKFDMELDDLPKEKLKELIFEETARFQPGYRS
measurementLabel: AC50 (nM)
Give just the numeric value; nM need not be written.

Example entries begin here.
CO[C@H]1CC[C@H](Cc2c(C)n(C(=O)N3CCC(C(=O)N[C@H]4CC[C@H](C(=O)O)CC4)(c4ccc(F)cc4)CC3)c3cc(F)ccc23)CC1 [Example 1c]: 390
CC(C)OC1CCC(C2CN(C(=O)N3CC[C@@](C(=O)N[C@H]4CC[C@H](C(=O)O)C[C@@H]4C)(c4ccc(F)cc4)C[C@@H]3C)c3cc(F)ccc32)CC1 (some centres unmarked) [Example 4]: 20
COCCc1c(C[C@H]2CC[C@H](OC(C)C)CC2)c2ccc(F)cc2n1C(=O)N1CCC(C(=O)N[C@H]2CC[C@H](C(=O)O)C[C@@H]2C)(c2ccc(F)cc2)CC1 [Example 3]: 46
C[C@H]1C[C@@H](C(=O)O)CC[C@@H]1NC(=O)[C@@]1(c2ccc(F)cc2)CCN(C(=O)N2CC([C@H]3CC[C@H](OC4CCOCC4)CC3)c3ccc(F)cc32)[C@@H](C)C1 (single isomer, unassigned) [Example 4a]: 24

Then this compound:
For the compound CN1CC[C@@H](NC(=O)C2(c3ccc(F)cc3)CCN(C(=O)c3cn(CC4CCOCC4)c4ccc(Br)cc34)CC2)C1 [Example 11] , report AC50. 4900

---

AC50 by entry:
system: WM793 cells; assay: Cell proliferation assay (CellTiter-Glo); type: cell-based; settings: Homo sapiens, WM793, 72 h, 3 d, read-out: Cell proliferation qualified AC50
Lab book: enter the figure in nM, no units written.

See these solved cases before continuing.
CN1CC[C@@H](NC(=O)C2(c3ccccc3)CCN(C(=O)c3c(C=O)n(CC4CCOCC4)c4ccc(Cl)cc34)CC2)C1 [Example 11a]: 300
COCCc1c(C[C@H]2CC[C@H](OC(C)C)CC2)c2ccc(F)cc2n1C(=O)N1CCC(C(=O)N[C@H]2CC[C@H](C(=O)O)C[C@@H]2C)(c2ccc(F)cc2)CC1: 60

Output AC50 of C[C@H]1C[C@@H](C(=O)O)CC[C@@H]1NC(=O)[C@@]1(c2ccc(F)cc2)CCN(C(=O)N2CC([C@H]3CC[C@H](OC4CCOCC4)CC3)c3ccc(F)cc32)[C@@H](C)C1 (single isomer, unassigned) 4

---

molecular target: nanobit-large-bit-ERK2 and nanobit-small-bit-PEA15 in WM793 cells (Homo sapiens, UniProt P28482); construct: expressed in transfected cells; test: NanoBiT assay; format: cell-based; conditions: WM793 nanobit stable cell line, overnight incubation; read-out: NanoBiT qualified absolute AC50
Catalogue of AC50 values
Express it in nM; write the number only.

Tell me AC50 reported for `CCc1c(C[C@H]2CC[C@H](OC3CCOCC3)CC2)c2ccc(F)cc2n1C(=O)N1CC[C@@](C(=O)N[C@H]2CC[C@H](C(=O)O)C[C@@H]2C)(c2ccccc2)C[C@@H]1C` 30

Query AC50 for `CCc1c(C[C@H]2CC[C@H](OC3CCOCC3)CC2)c2ccc(F)cc2n1C(=O)N1CC[C@@](C(=O)N[C@H]2CC[C@H](C(=O)O)C[C@@H]2C)(c2ccc(F)c(F)c2)C[C@@H]1C` 160

Please report AC50 for the following compound: `CCO[C@H]1CC[C@H](Cc2c(C)n(C(=O)N3CCC(C(=O)N[C@H]4CC[C@H](C(=O)O)C[C@@H]4C)(c4ccc(F)cc4)CC3)c3cc(F)ccc23)CC1` 80

Dear colleague, please send me the reported AC50 for `COCCc1c(C[C@H]2CC[C@H](OC(C)C)CC2)c2cc(F)c(F)cc2n1C(=O)N1CCC(C(=O)N[C@H]2CC[C@H](C(=O)O)C[C@@H]2C)(c2ccc(F)cc2)CC1` when you can. 140

Specify reported AC50 for the compound shown: `Cc1c(C(=O)N2CCC(C(=O)N[C@H]3CN(C)C[C@H]3F)(c3ccc(F)cc3)CC2)c2cc(Cl)ccc2n1CC1CCOCC1` 350

Tell me measured AC50 for `CCc1c(C[C@H]2CC[C@H](OC3CCOCC3)CC2)c2ccc(F)cc2n1C(=O)N1CCC(C(=O)N[C@H]2CC[C@H](C(=O)O)C[C@@H]2C)(c2ccc(Cl)nc2)CC1` please. 250

Please report AC50 for the following compound: CN1CC[C@@H](NC(=O)C2(c3ccc(Cl)cc3)CCN(C(=O)c3c(C=O)n(CC4CCOCC4)c4ccc(Cl)cc34)CC2)C1 [Example 11b] 560

Return AC50 (reported value) for this compound: CC(C)O[C@H]1CC[C@H](Cn2c(C=O)c(C(=O)N3CCC(C(=O)N[C@H]4CC[C@H](C(=O)O)C[C@@H]4C)(c4ccc(F)cc4)CC3)c3cc(Cl)cnc32)CC1 [Example 11g] 270

Give a short answer stating reported AC50 for CCOC1CCC(Cc2c(C)n(C(=O)N3CC[C@@](C(=O)N[C@H]4CC[C@H](C(=O)O)C[C@@H]4C)(c4ccc(F)cc4)C[C@@H]3C)c3cc(F)ccc23)OC1 (single isomer, unassigned) . 28

Name the recorded AC50 of the item `Cc1c(C[C@H]2CC[C@H](OC3CCOCC3)CC2)c2ccc(F)cc2n1C(=O)N1CC[C@@](C(=O)N[C@H]2CC[C@H](C(=O)O)C[C@@H]2C)(c2ccc(F)cc2)C[C@@H]1C` in your answer. 26

Give the value of AC50 reported for the following: `C[C@H]1C[C@@H](C(=O)O)CC[C@@H]1NC(=O)[C@@]1(c2ccc(F)cc2)CCN(C(=O)N2CCc3ccc(F)cc32)[C@@H](C)C1` 260

Supply reported AC50 belonging to this compound: Cc1c(CC2CCC(OC(C)C)CO2)c2ccc(F)cc2n1C(=O)N1CC[C@@](C(=O)N[C@H]2CC[C@H](C(=O)O)C[C@@H]2C)(c2ccc(F)cc2)C[C@@H]1C (some centres unmarked) 31

Give AC50 for the following compound: `CCc1c(C[C@H]2CC[C@H](OC(C)C)CC2)c2ccc(F)cc2n1C(=O)N1CCC(C(=O)N[C@H]2CC[C@H](C(=O)O)C[C@@H]2C)(c2ccc(F)cc2)CC1` 190

---

biological target: ERK2[2-360(p-T185/p-Y187)]-Avi (Homo sapiens); construct: 400 pM ERK2[2-360(p-T185/p-Y187)]-Avi was added to the plate; assay: Biochemical assay (HTRF competition assay); type: binding; conditions: HTRF competition with Example 15 probe, overnight at RT; read-out: Biochemical qualified AC50
measurementLabel: AC50 (nM)
Respond numerically; units are nM and should not be typed.

Please review the entries below; each comes with its answer.
C[C@H]1C[C@@H](C(=O)O)CC[C@@H]1NC(=O)[C@@]1(c2ccc(F)cc2)CCN(C(=O)N2CC([C@H]3CC[C@H](OC4CCOCC4)CC3)c3ccc(F)cc32)[C@@H](C)C1 (single isomer, unassigned): 0.87
CN1C[C@@H](F)[C@@H](NC(=O)C2(c3ccc(F)cc3)CCN(C(=O)c3c(C#N)n(CC4CCOCC4)c4ccc(Cl)cc34)CC2)C1 [Example 11j]: 0.97
CC(C)O[C@H]1CC[C@H](C2CN(C(=O)N3CC[C@@](C(=O)N[C@H]4CC[C@H](C(=O)O)C[C@@H]4C)(c4ccc(F)cc4)C[C@@H]3C)c3cc(F)ccc32)CC1 (single isomer, unassigned): 3.9
CN1CC[C@@H](NC(=O)C2(c3ccc(F)cc3)CCN(C(=O)c3cn(CC4CCOCC4)c4ccc(Br)cc34)CC2)C1: 18
CN1C[C@@H](F)[C@@H](NC(=O)C2(c3ccc(F)cc3)CCN(C(=O)c3c(C(F)F)n(CC4CCOCC4)c4ccc(Cl)cc34)CC2)C1 [Example 11i]: 0.72
C[C@H]1C[C@@H](C(=O)O)CC[C@@H]1NC(=O)[C@@]1(c2ccc(F)cc2)CCN(C(=O)N2CCc3ccc(F)cc32)[C@@H](C)C1: 0.32

Annotate the compound `CCc1c(C[C@H]2CC[C@H](OC3CCOCC3)CC2)c2ccc(F)cc2n1C(=O)N1CCC(C(=O)N[C@H]2CC[C@H](C(=O)O)C[C@@H]2C)(c2ccc(Cl)nc2)CC1` with its measured AC50. 0.48

Give the measured AC50 for `CCO[C@H]1CC[C@H](Cc2c(C)n(C(=O)N3CCC(C(=O)N[C@H]4CC[C@H](C(=O)O)C[C@@H]4C)(c4ccc(F)cc4)CC3)c3cc(F)ccc23)CC1` 0.33
